Reference source: the supplement of paper PMC5844555

tested on: FBXW7; assay: 3' UTR reporter interaction score (median-centred robust z-score of log2 firefly/Renilla activity); higher = less repression of the 3' UTR reporter; conditions: HEK293T; 48 h
OBSERVATION TYPE: 3' UTR reporter interaction score
The reply should be a number, written without any unit.

Worked set:
> print(dat)
                 seq.string  subject.of.test                   observation.type  assay.value
1     CAUUAUUACUUUUGGUACGCG            FBXW7  3' UTR reporter interaction score       0.0986
2  UCAGAACAAAUGCCGGUUCCCAGA            FBXW7  3' UTR reporter interaction score        0.465

Enquiry: Given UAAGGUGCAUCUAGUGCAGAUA , state its recorded 3' UTR reporter interaction score.
Return: 0.264

Enquiry: Repeat for the following sequence: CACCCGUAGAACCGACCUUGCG
Return: 0.377

Enquiry: Repeat for the following sequence: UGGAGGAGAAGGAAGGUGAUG
Return: -0.125

Enquiry: Repeat for the following sequence: UGAGGUAGUAGUUUGUACAGU
Return: -0.143

Enquiry: Repeat for the following sequence: AGUGGGGAACCCUUCCAUGAGGA
Return: 0.423

Enquiry: Repeat for the following sequence: UGCACCAUGGUUGUCUGAGCAUG
Return: -1.84

Enquiry: Repeat for the following sequence: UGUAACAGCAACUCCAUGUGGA
Return: -1.43
